- Tested on: RAW-Dual (murine macrophage reporter line)
- protocol details: IRF reporter (Lucia luciferase) activity fold change vs agonist alone; higher = enhanced IRF activity
- test settings: modulator concentration 10 µM; agonist: 3'3'-cGAMP 10 ug/mL
Use IRF reporter to assign classes; range list: class A (below 0.9), class B (0.9 to below 1), class C (1 or more)

Use the examples below as a reference point.
Cc1cc(C)n(CCNc2nc3ccccc3s2)n1 : class C
COc1cc2c(Oc3ccc4[nH]c(C)cc4c3F)ncnc2cc1OCCCN1CCCC1 : class B
COc1ccc2ncc(S(=O)(=O)c3ccccc3)c(N3CCN(c4ccccc4)CC3)c2c1 : class C

// next entry
Exercise: read the entry Nc1ccn([C@@H]2O[C@H](CO)[C@@H](O)[C@@H]2O)c(=O)n1 and state which class it falls under.
class A

Reference for the values: the supplement of paper PMC10646978
